- tgt: S. aureus N-Succinyl-L,L-DAP Desuccinylase (DapE), SEQ ID NO: 2 (Staphylococcus aureus, UniProt Q5HF23)
- Sequence (Q5HF23 whole entry): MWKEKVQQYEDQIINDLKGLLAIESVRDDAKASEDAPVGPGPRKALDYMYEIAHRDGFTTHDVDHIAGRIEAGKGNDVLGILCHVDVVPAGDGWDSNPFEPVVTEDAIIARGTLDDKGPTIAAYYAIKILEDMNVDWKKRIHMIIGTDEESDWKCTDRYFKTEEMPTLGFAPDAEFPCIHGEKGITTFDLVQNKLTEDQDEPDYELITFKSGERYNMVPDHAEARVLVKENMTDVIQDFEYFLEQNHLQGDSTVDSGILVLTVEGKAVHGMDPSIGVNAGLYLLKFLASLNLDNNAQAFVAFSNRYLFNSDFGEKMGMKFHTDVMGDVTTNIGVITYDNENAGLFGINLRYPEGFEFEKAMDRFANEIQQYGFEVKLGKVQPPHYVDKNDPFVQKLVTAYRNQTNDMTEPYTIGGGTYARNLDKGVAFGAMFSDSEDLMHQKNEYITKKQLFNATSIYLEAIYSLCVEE
- procedure.summary: qualitative dipeptidase activity (TLC assay)
- Type: biochemical, Staphylococcus aureus COL
- Design: key: +: Mild hydrolytic activity; ++: Moderate hydrolytic activity; +++: High hydrolytic activity
- test.conditions: 5.0 mg/mL dipeptide, 2 μg DapE, 50 mM Tris-HCl pH 7.5, 37° C., 30 min
Residues, ends and D or L forms follow the SMILES beside them.
endpoint.label: Activity (qualitative dipeptidase / hydrolytic activity)

Recorded Activity (qualitative dipeptidase / hydrolytic activity), per entry:
C[C@H](NC(=O)[C@@H](N)CCCN=C(N)N)C(=O)O [Arg-Ala] (H-Arg-Ala-OH)	+++
NCCCC[C@H](NC(=O)[C@@H](N)CC(=O)O)C(=O)O [Asp-Lys] (H-Asp-Lys-OH)	+
CC(C)[C@H](NC(=O)[C@@H](N)CCCN=C(N)N)C(=O)O [Arg-Val] (H-Arg-Val-OH)	+++
CC[C@H](C)[C@H](NC(=O)[C@@H](N)CCCN=C(N)N)C(=O)O [Arg-Ile] (H-Arg-Ile-OH)	+++
C[C@H](N)C(=O)N[C@@H](CO)C(=O)O [Ala-Ser] (H-Ala-Ser-OH)	+
NCCCC[C@H](NC(=O)CN)C(=O)O [Gly-Lys] (H-Gly-Lys-OH)	+

Hi there! I need Activity (qualitative dipeptidase / hydrolytic activity) for each item below, if you can.
1. CC(C)[C@H](NC(=O)[C@@H](N)Cc1ccccc1)C(=O)O [Phe-Val] (H-Phe-Val-OH)
2. N[C@@H](CO)C(=O)N[C@@H](Cc1cnc[nH]1)C(=O)O [Ser-His] (H-Ser-His-OH)
3. CC(C)C[C@H](NC(=O)[C@@H](N)CCCN=C(N)N)C(=O)O [Arg-Leu] (H-Arg-Leu-OH)
4. NCCCC[C@H](N)C(=O)N[C@@H](Cc1ccccc1)C(=O)O
5. NCC(=O)N[C@@H](CO)C(=O)O [Gly-Ser] (H-Gly-Ser-OH)
6. CC(C)C[C@H](NC(=O)[C@@H](N)CCCCN)C(=O)O [Lys-Leu] (H-Lys-Leu-OH)
7. CC(C)C[C@H](NC(=O)[C@@H](N)Cc1cnc[nH]1)C(=O)O [His-Leu] (H-His-Leu-OH)

Out:
1. +++
2. ++
3. +++
4. ++
5. +
6. ++
7. +
